Target chain: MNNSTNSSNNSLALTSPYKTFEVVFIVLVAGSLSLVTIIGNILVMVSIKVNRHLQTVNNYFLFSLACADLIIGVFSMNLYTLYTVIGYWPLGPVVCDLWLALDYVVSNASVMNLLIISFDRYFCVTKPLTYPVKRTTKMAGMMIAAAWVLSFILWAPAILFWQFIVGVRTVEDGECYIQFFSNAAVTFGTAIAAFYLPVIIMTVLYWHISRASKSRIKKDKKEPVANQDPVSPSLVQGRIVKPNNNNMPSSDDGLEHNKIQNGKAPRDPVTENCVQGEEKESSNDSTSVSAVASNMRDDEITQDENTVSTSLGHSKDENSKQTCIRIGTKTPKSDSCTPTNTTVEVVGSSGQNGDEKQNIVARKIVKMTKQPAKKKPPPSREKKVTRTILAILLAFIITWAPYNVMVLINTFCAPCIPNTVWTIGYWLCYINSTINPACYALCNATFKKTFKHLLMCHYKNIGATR
measured.attribute: Ki (nM)

A = O=C(CCCNC(=O)CNC(=O)CC(c1ccccc1)(c1ccccc1)c1ccccc1)NCC1CCCN(CC2CCCCC2)C1 (stereo not drawn)
B = O=C(NC[C@H]1CCCN(CC2CCCCC2)C1)[C@H]1CCCN1C(=O)[C@@H]1CCCN1C(=O)CC(c1ccccc1)(c1ccccc1)c1ccccc1
C = O=C(CCNC(=O)CNC(=O)CC(c1ccccc1)(c1ccccc1)c1ccccc1)NC[C@H]1CCCN(CC2CCCCC2)C1
Prompt line: Could you put the items above in increasing order of their Ki? // respond by listing labels in the order requested
Response line: B, C, A
(B: 0.82 nM, C: 30 nM, A: 270 nM)
